- test-summary: JC-1 mitochondrial signal, unstimulated myeloma cells – cell-based, JC-1 fluorescence, RPMI8226, 24 h, 100 nL compound, profiling panel (AID 1169); also: test concentration not given here
- condition-notes: JC-1 mitochondrial potential fluorescence, higher = more signal
z-score overview
quantity: z-score

1) CCCC#C[Si](O[C@H](CC)c1cn(Cc2ccccc2)nn1)(C(C)C)C(C)C    0.973
2) CCCCN1CC=CC23O[C@@H]4/C=C\CCCOC(=O)C4[C@H]2C(=O)N(C(CO)C(C)C)[C@@H]3C1=O (some centres undefined)    -0.4
3) COC(=O)C[C@H]1O[C@@]2(C[C@@H]1[Si](C)(C)C)C(=O)N(C)c1ccccc12    -1.09
4) O=C1c2ccccc2[C@@]2(Cc3ccccc3N(Cc3ccccc3)C2=O)[C@H](c2ccc(CO)cc2)N1Cc1ccccc1Cl    -0.972
